The origin of these recorded values is PubChem BioAssay (NCI).

# testMethodNotes: NCI Yeast Anticancer Drug Screen. Data for the mgt1 strain (AID 153)
# runParameters: S. cerevisiae mgt1 mutant growth inhibition; at 100.0 µM
Compounds without any hit were thinned out: in the full panel of roughly 79,000, 15% have a hit. The source made the active and inactive calls. Cut-off read from the data, not from the text of the source: active = growth inhibition above about 70%; inactive = the rest.
Outcome codes: active, inactive

In [3]: df
Out[3]:
                                    molecule  category
 0  CC(=O)O/C(=C1\C[C@H]2[C@@H]3CC=C4C[C@@H](OC(C)=O)CC[C@]4(C)[C@H]3CC[C@]2(C)C1=O)C(F)(F)F  inactive
 1  O=C1c2ccc3ccccc3c2CCC1N1CCCCC1 (stereo unspecified)    active
 2            Cc1ccc2c(c1N)C(=O)c1ccccc1C2=O  inactive
 3  O=C1C2CC(Cl)C(SSC3CC4C(=O)N(SC(Cl)(Cl)C(Cl)Cl)C(=O)C4CC3Cl)CC2C(=O)N1SC(Cl)(Cl)C(Cl)Cl (stereo unspecified)    active
 4  O=C(O)C1C2CCC(C2)C1c1ccccc1 (stereo unspecified)  inactive
 5    CCN(CCCl)CCCCNc1c2ccccc2nc2ccc(OC)cc12    active
 6  CC12CCC(C1)C(C)(C)C2OC(=O)c1ccccc1N (stereo unspecified)  inactive
 7             BrCC[N+]12CC[N+](CCBr)(CC1)C2    active
 8                 Nc1ccccc1C(=O)OCCc1ccccc1    active
 9                    c1ccc2cc3n[se]nc3cc2c1    active
10  Cc1cc[n+](C2=C(Nc3cccc(C(F)(F)F)c3)C(=O)c3ccccc3C2=O)cc1  inactive
11                               CCN(CC)CCBr  inactive
12                   Nc1nnc(N)n1-n1c(N)nnc1N  inactive
13  CCCN(CCC)c1c([N+](=O)[O-])cc(S(N)(=O)=O)cc1[N+](=O)[O-]  inactive
14                  CNC(=O)ON(C(C)=O)C(=O)NC  inactive
15  O=C1C=C(CN(CCCl)CCCl)C(=O)C=C1CN(CCCl)CCCl  inactive
16        Cc1c([N+](=O)[O-])oc2ccc3ccccc3c12  inactive
17  O=C(O)C1C2c3ccccc3C(c3ccccc32)C1C(=O)O (stereo unspecified)  inactive
18  CC1CN=C(Nc2ccccc2)S1 (stereo unspecified)  inactive
19  OC1CCCC2CCC[N-]C12.OC1CCCC2CCC[N-]C12.[O]=[V][OH] (stereo unspecified)    active
20                        CSc1ccccc1[As](C)C    active
21    O=C(NNC(=O)OCC(Cl)(Cl)Cl)OCC(Cl)(Cl)Cl    active
22  O=C(c1ccccc1)C1C(c2ccccc2[N+](=O)[O-])N1C1CCCCC1 (stereo unspecified)    active
23  CCNC(=O)OCC1C2=C(C(=O)C(C)=C(N)C2=O)N2CC3C(N3C)C12OC (stereo unspecified)    active
24  COc1cc(O)c2c(O)c3c(c4c2c1[C@]1(C4)C(C)=CCCC1(C)C)[C@H](O)[C@@]1(O)CC(=O)C(C(N)=O)=C(O)[C@@]1(O)C3=O    active
25  COC(=O)C(F)C(Br)C(=O)OC (stereo unspecified)    active
26  CCS(=O)(=O)[O][Sn]([CH2]C)([CH2]C)[O]S(=O)(=O)CC  inactive
27           O=C(Nc1cc(Cl)ccc1Cl)C(Cl)(Cl)Cl  inactive
28                      Cn1cnc(N)c1C(=N)[Se]  inactive
29  COC(=O)C1=C(C(=O)OC)SC2(S1)C(C(=O)OC)=C(C(=O)OC)Sc1c2ssc1=O    active
30        O=[N+]([O-])c1cc(S(=O)(=O)F)ccc1Cl    active
31  CCCCCCCCCCCCCCCCP(=O)(O)OCC(N)C(=O)O (stereo unspecified)    active
32  C[C@]12CCC3[C@@H](CC[C@@H]4c5nonc5CC[C@]34C)C1CCC2=O (stereo partly specified)    active
33  [O-][n+]1c2cccc(O)c2[n+]([O-])c2cccc(O)c21  inactive
34  O=C1OC2C(O1)C1(Cl)C(Cl)=C(Cl)C2(Cl)C1(Cl)Cl (stereo unspecified)  inactive
35  CC[C@@]1(O)C(=O)OCc2c1cc1n(c2=O)Cc2cc3c(NC(=O)CN)cccc3nc2-1  inactive
36  COC(=O)C1=C(C(=O)OC)C2OC1c1cc3ccccc3cc12    active
37  C[C@]12CCC(=O)C=C1CC[C@@H]1C2CC[C@@]2(C)C1CC[C@@H]2OC(=O)C12OC1CCC2=O (stereo partly specified)    active
38  C[N+]1(CCCl)CC[N+](C)(CCCl)CC1 (stereo unspecified)    active
39  CCC1(O)C(=O)OCc2c1cc1n(c2=O)Cc2cc3cc(Cl)ccc3nc2-1 (stereo unspecified)  inactive
40  COC(=O)C1c2cc3c(c(O)c2C(O)CC1(C)O)C(=O)c1c(O)cc2c(c1C3=O)OC1OC2(C)C(O)C(N(C)C)C1O (stereo unspecified)    active
41  CC1(Cl)CC(C)(/C=C/Cl)C(Cl)CC1Cl (stereo unspecified)  inactive
42                  Cc1ccc2nc3sc(=O)sc3nc2c1    active
43  C[CH2][Sn]([CH2]C)([O]S(C)(=O)=O)[O]S(C)(=O)=O  inactive
44                     Cc1c2ccccc2cc2ccccc12    active
45                       Oc1c(Br)cc(Br)cc1Br    active
